// values below are reported PC12 cell viability (% of control)
# System: PC12 cells
# experiment-description: Neuroprotection against H2O2-induced cell death in PC12 cells (MTT)
# Type: cell-based
# condition-set: 10 μM compound, H2O2 (150 μM)-induced injury, mean ± SEM

The following compounds have reported results that may help.
> print(dat)
                                   compound                          value.kind                   result
1  COc1ccc2oc(=O)c(-c3ccc(OCCC[n+]4ccccc4)cc3)cc2c1.[Br-]  PC12 cell viability (% of control)  45.4 ± 1.3 % of control
2  O=c1c(O)c(-c2ccc(O)c(O)c2)oc2cc(O)cc(O)c12 [Quercetin, reference compound]  PC12 cell viability (% of control)  55.8 ± 0.3 % of control
3  CN(C)c1cc[n+](CCCOc2ccc(-c3cc4cc([N+](=O)[O-])ccc4oc3=O)cc2)cc1.[Br-]  PC12 cell viability (% of control)  56.3 ± 1.6 % of control

# next compound below
// sample O=c1oc2ccccc2cc1-c1ccc(OCCC[n+]2ccccc2)cc1.[Br-] , its PC12 cell viability (% of control) was 55.6 ± 0.1 % of control

* * *

# Test system: PC12 cells
# experiment-description: Neuroprotection against H2O2-induced cell death in PC12 cells (MTT)
# Type: cell-based
# condition-set: 50 μM compound, H2O2 (150 μM)-induced injury, mean ± SEM
value-kind: PC12 cell viability (% of control)

// sample O=c1oc2ccc([N+](=O)[O-])cc2cc1-c1ccc(OCCCC[n+]2ccccc2)cc1.[Br-] , its PC12 cell viability (% of control) was 55.7 ± 2.0 % of control

// sample O=c1oc2ccccc2cc1-c1ccc(OCCC[n+]2ccccc2)cc1.[Br-] , its PC12 cell viability (% of control) was 58.3 ± 1.4 % of control

// sample O=c1c(O)c(-c2ccc(O)c(O)c2)oc2cc(O)cc(O)c12 [Quercetin, reference compound] , its PC12 cell viability (% of control) was 61.0 ± 0.8 % of control

// sample CN(C)c1cc[n+](CCCOc2ccc(-c3cc4cc([N+](=O)[O-])ccc4oc3=O)cc2)cc1.[Br-] , its PC12 cell viability (% of control) was 71.8 ± 1.1 % of control

// sample O=c1oc2ccc([N+](=O)[O-])cc2cc1-c1ccc(OCCC[n+]2ccccc2)cc1.[Br-] , its PC12 cell viability (% of control) was 50.8 ± 0.6 % of control

// sample COc1ccc2oc(=O)c(-c3ccc(OCCC[n+]4ccccc4)cc3)cc2c1.[Br-] , its PC12 cell viability (% of control) was 54.3 ± 1.6 % of control

// sample O=c1oc2ccccc2cc1-c1ccc(OCCCC[n+]2ccccc2)cc1.[Br-] , its PC12 cell viability (% of control) was 49.9 ± 0.9 % of control

* * *

# study-target: BuChE (equine serum) (Equus caballus, UniProt P81908)
# Sequence (P81908 whole entry): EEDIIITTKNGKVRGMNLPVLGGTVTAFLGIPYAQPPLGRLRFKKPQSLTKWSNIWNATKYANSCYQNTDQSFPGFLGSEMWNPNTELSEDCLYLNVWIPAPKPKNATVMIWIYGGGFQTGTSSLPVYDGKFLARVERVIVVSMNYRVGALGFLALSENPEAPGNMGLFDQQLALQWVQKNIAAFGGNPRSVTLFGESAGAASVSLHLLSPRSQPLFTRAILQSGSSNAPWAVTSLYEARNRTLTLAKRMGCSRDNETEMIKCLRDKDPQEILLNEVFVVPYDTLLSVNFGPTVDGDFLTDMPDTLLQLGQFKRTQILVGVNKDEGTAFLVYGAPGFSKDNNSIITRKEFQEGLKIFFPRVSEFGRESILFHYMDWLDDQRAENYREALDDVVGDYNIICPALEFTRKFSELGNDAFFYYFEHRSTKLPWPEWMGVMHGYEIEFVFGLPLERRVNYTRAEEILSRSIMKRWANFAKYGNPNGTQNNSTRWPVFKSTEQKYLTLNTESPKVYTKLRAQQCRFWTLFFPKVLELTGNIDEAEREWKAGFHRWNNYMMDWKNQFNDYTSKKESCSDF
# experiment-description: biochemical
# condition-set: equine serum BuChE; mean ± SEM of three experiments
value-kind: IC50 (nM)
Record the value in nM, omitting the unit from your answer.

> print(dat)
                           smiles.structure  unit.info  quantitative.readout
1  O=c1oc2ccc([N+](=O)[O-])cc2cc1-c1ccc(OCCCCC[n+]2ccccc2)cc1         nM                    27

# next molecule below
// sample CCc1ccc(C)[n+](CCCCCOc2ccc(-c3cc4cc(Br)ccc4oc3=O)cc2)c1 , its IC50 was 22

* * *

# study-target: Aβ1-42 (Homo sapiens, UniProt P05067)
# Construct: Amyloid-β protein 1–42 (Sigma A9810) was dissolved; purchased Sigma A9810
# Sequence (P05067 672-713 limits assumed): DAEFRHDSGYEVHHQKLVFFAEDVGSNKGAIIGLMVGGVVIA
# experiment-description: Inhibition of self-induced Aβ1-42 aggregation (ThT assay)
# Format: biochemical
# condition-set: Aβ1-42 20 μM, compound 100 μM, after 48 h, ThT, mean ± SEM of three experiments
# Experimental: Inhibitory properties of the compounds on self-induced and AChE-induced aggregation of amyloid-β protein 1–42 was determined using a thioflavin T (ThT)-based fluorescence assay with slight modifications ([Levine, 1993]). The ThT excitation/emission was measured at 448 nm/490 nm at 48 h using a SpectraMax® Microplate Reader. Amyloid-β protein 1–42 (Sigma A9810) was dissolved in Phosphate Buffer Saline pH 7.4 (PBS, HyClone Thermo Scientific) containing ammonium hydroxide (1%). […]
// values below are reported Inhibition of self-induced Aβ aggregation
Record the value in %, omitting the unit from your answer.

> print(dat)
                                   compound  quantitative.readout
1  O=c1oc2ccccc2cc1-c1ccc(OCCC[n+]2ccccc2)cc1.[Br-] [Compound 3a]                  73.3

Item CN(C)c1cc[n+](CCCOc2ccc(-c3cc4cc([N+](=O)[O-])ccc4oc3=O)cc2)cc1.[Br-] [Compound 3t] ; assay system Aβ1-42 (Homo sapiens, UniProt P05067); Inhibition of self-induced Aβ aggregation reported as 66.4

Item O=c1oc2ccc([N+](=O)[O-])cc2cc1-c1ccc(OCCC[n+]2ccccc2)cc1.[Br-] [Compound 3f] ; assay system Aβ1-42 (Homo sapiens, UniProt P05067); Inhibition of self-induced Aβ aggregation reported as 84.7

Item COc1cc2c(cc1OC)C(=O)C(CC1CCN(Cc3ccccc3)CC1)C2 (stereo not shown) [Donepezil, reference compound] ; assay system Aβ1-42 (Homo sapiens, UniProt P05067); Inhibition of self-induced Aβ aggregation reported as 30.8

* * *

// values below are reported PC12 cell viability (% of control)
# Test system: PC12 cells
# experiment-description: Neuroprotection against H2O2-induced cell death in PC12 cells (MTT)
# Format: cell-based
# condition-set: 20 μM compound, H2O2 (150 μM)-induced injury, mean ± SEM
# Procedure: The cell viability was measured using MTT [3-(4,5-dimethylthiazol-2-yl)-2,5-diphenyl tetrazolium bromide] assay ([Datki et al., 2003]). […] Absorbance was then measured at 570 nm using a multi-mode plate reader (Biotek, Winooski, VT). Cell viability is expressed as a percentage relative to the untreated control.

// sample O=c1c(O)c(-c2ccc(O)c(O)c2)oc2cc(O)cc(O)c12 [Quercetin, reference compound] , its PC12 cell viability (% of control) was 59.6 ± 0.8 % of control

// sample O=c1oc2ccccc2cc1-c1ccc(OCCCC[n+]2ccccc2)cc1.[Br-] [Compound 3g] , its PC12 cell viability (% of control) was 48.7 ± 0.9 % of control

// sample CN(C)c1cc[n+](CCCOc2ccc(-c3cc4cc([N+](=O)[O-])ccc4oc3=O)cc2)cc1.[Br-] [Compound 3t] , its PC12 cell viability (% of control) was 68.2 ± 0.1 % of control

// sample COc1ccc2oc(=O)c(-c3ccc(OCCC[n+]4ccccc4)cc3)cc2c1.[Br-] [Compound 3b] , its PC12 cell viability (% of control) was 49.6 ± 0.9 % of control

// sample O=c1oc2ccccc2cc1-c1ccc(OCCC[n+]2ccccc2)cc1.[Br-] [Compound 3a] , its PC12 cell viability (% of control) was 57.4 ± 0.4 % of control

// sample O=c1oc2ccc([N+](=O)[O-])cc2cc1-c1ccc(OCCC[n+]2ccccc2)cc1.[Br-] [Compound 3f] , its PC12 cell viability (% of control) was 48.3 ± 0.4 % of control

// sample O=c1oc2ccc([N+](=O)[O-])cc2cc1-c1ccc(OCCCC[n+]2ccccc2)cc1.[Br-] [Compound 3l] , its PC12 cell viability (% of control) was 51.6 ± 1.1 % of control

* * *

# System: PC12 cells
# experiment-description: Neuroprotection against H2O2-induced cell death in PC12 cells (MTT)
# Type: cell-based
# condition-set: 5 μM compound, H2O2 (150 μM)-induced injury, mean ± SEM
value-kind: PC12 cell viability (% of control)

The following molecules have reported results that may help.
> print(dat)
                                   molecule                   result
1  O=c1oc2ccccc2cc1-c1ccc(OCCCC[n+]2ccccc2)cc1.[Br-] [Compound 3g]  36.6 ± 0.9 % of control
2  COc1ccc2oc(=O)c(-c3ccc(OCCC[n+]4ccccc4)cc3)cc2c1.[Br-] [Compound 3b]  43.3 ± 0.9 % of control
3  O=c1oc2ccc([N+](=O)[O-])cc2cc1-c1ccc(OCCC[n+]2ccccc2)cc1.[Br-] [Compound 3f]  43.1 ± 1.5 % of control
4  O=c1oc2ccccc2cc1-c1ccc(OCCC[n+]2ccccc2)cc1.[Br-] [Compound 3a]  53.6 ± 1.4 % of control
5  O=c1c(O)c(-c2ccc(O)c(O)c2)oc2cc(O)cc(O)c12 [Quercetin, reference compound]  50.7 ± 0.1 % of control
6  O=c1oc2ccc([N+](=O)[O-])cc2cc1-c1ccc(OCCCC[n+]2ccccc2)cc1.[Br-] [Compound 3l]  33.5 ± 1.2 % of control

# next molecule below
// sample CN(C)c1cc[n+](CCCOc2ccc(-c3cc4cc([N+](=O)[O-])ccc4oc3=O)cc2)cc1.[Br-] [Compound 3t] , its PC12 cell viability (% of control) was 53.6 ± 0.7 % of control
